subject.of.test: Estrogen receptor (Homo sapiens)
procedure.summary: ATG_ERa_TRANS: Attagene TRANS-FACTORIAL HepG2 Assay for human Estrogen Receptor alpha (ERa) (AID 2282970)
assay.context: HepG2 Attagene TRANS ERa GAL4 reporter, mRNA
Records with an inconclusive call do not appear. The source made the active and inactive calls. How the source made its calls: active means hit-call score of the fitted dose curve at least 0.9, where 1 is the maximum; inconclusive means response in the unintended direction; inactive means score below 0.9.
Assign a class; possible classes are active, inactive

Study these solved cases before continuing.
O=c1[nH]c2ccccc2c(=O)o1
inactive
N#Cc1cc([N+](=O)[O-])ccc1N
inactive
CCOP(=O)(O)C(N)=O
inactive
Nc1ccc(Cl)cc1
inactive
CC(O)C#N (centres undefined)
inactive

Now for a further compound.
Q: What was the test verdict on O=C(O)C(F)(F)C(F)(F)C(=O)O ?
Result: inactive

###

Read-out: Vascular cell adhesion molecule 1 (VCAM1), VCAM1 (gene 7412)
procedure.summary: BSK_4H_VCAM1: BioMAP Diversity Plus: 4H Assay for Vascular cell adhesion molecule 1 (VCAM1) Biomarker Activity (AID 2283033)
assay.context: primary human endothelial cells (HUVEC); actives raise or lower the signal
Calls of active or inactive are those of the source. How the source made its calls: active means hit-call score of the fitted dose curve at least 0.9, where 1 is the maximum; inactive means score below 0.9.
Pick one and only one: active, inactive

Please review the entries below; each comes with its answer.
c1ccc2c(c1)Nc1ccccc1S2
inactive
c1cc2c3c(cccc3c1)CC2
inactive
COP(N)(=S)OC
inactive

Q: Assay outcome for CC(Cc1ccc(OCC(=O)O)cc1)NCC(O)c1csc(C(F)(F)F)n1 (centres undefined) : what was it?
Result: inactive

Q: Another compound to check: CSC(C)(C)C=NO
Result: inactive

Q: Now give it for NC(=O)C(F)(F)C(F)(F)F too.
Result: inactive

Q: Then COCCOCCO ?
Result: inactive

Q: What about this compound? O=P(Oc1ccccc1)(Oc1ccccc1)Oc1ccccc1
Result: active

Q: // query: CC(C)(C)OOC(C)(C)C
Result: inactive

###

subject.of.test: Transcription factor Sp1 (Homo sapiens) (UniProt P08047)
Sequence (P08047 whole entry, looked up): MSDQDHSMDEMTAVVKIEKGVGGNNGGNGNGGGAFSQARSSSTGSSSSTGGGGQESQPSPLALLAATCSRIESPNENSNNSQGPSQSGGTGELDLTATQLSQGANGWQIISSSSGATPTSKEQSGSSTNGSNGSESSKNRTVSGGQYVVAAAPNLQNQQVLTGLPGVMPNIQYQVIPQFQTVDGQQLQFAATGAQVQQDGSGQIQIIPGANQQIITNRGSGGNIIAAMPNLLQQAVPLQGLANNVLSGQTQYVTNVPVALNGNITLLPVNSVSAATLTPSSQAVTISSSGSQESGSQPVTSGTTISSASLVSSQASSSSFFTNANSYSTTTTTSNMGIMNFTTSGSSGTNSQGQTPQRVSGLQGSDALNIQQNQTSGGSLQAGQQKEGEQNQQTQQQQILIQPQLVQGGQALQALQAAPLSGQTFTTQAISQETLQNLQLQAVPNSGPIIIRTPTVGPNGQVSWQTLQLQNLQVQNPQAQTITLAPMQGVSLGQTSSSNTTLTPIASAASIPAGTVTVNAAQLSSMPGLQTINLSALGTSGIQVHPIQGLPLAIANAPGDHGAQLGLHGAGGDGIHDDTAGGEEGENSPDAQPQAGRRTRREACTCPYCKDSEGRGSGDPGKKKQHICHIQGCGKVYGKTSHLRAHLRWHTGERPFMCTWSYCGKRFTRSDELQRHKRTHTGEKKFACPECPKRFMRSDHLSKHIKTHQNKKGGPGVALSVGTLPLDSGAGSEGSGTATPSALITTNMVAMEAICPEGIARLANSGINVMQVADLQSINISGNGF
procedure.summary: ATG_Sp1_CIS: Attagene CIS-FACTORIAL HepG2 Assay for human Specificity Protein 1 (Sp1) (AID 2282961)
assay.context: HepG2 Sp1 cis-reporter transcription, actives raise or lower the signal
Activity calls are given as the source filed them. How the source made its calls: active means hit-call score of the fitted dose curve at least 0.9, where 1 is the maximum; inactive means score below 0.9.
Lab note: assign the record to one of label 1 = active, label 0 = inactive

Study these solved cases before continuing.
CC(C)Nc1ccc(Nc2ccccc2)cc1
label 0
CCOP(=S)(NC(C)C)Oc1ccccc1C(=O)OC(C)C (stereo not given)
label 0

Continue with the compound presented below.
Q: GET /call?item= CCCN(CCC)c1c([N+](=O)[O-])cc(C(C)C)cc1[N+](=O)[O-] returns the recorded outcome of this test.
Result: label 0

###

Read-out: Pro-epidermal growth factor (Homo sapiens) (UniProt P01133)
procedure.summary: LTEA_HepaRG_EGF: Life Technologies and Expression Analysis (LTEA) Assay for Epidermal growth factor (EGF) using HepaRG (AID 2283489)
assay.context: mRNA level, 48 h; actives raise or lower the signal
The source made the active and inactive calls. How the source made its calls: active means hit-call score of the fitted dose curve at least 0.9, where 1 is the maximum; inactive means score below 0.9.
Give your call using only these classes: active, inactive

ClC(Cl)c1ccccc1
inactive
OCC1CO1 (stereo unspecified)
inactive
CCCCc1ccccc1
inactive
CCOc1ccc(C(C)(C)COCc2cccc(Oc3ccccc3)c2)cc1
active
CCOP(=S)(OCC)SCSCC
inactive
CCCCN(CCCC)N=O
inactive

Q: Please share the test call associated with CC(Cl)(Cl)C(=O)O .
Result: inactive

Q: Next entry: CCN(CC)c1ccccc1
Result: inactive

Q: And CCOP(=S)(Oc1ccc([N+](=O)[O-])cc1)c1ccccc1 (stereo unspecified) ?
Result: active

Q: # repeat for CCCCCCCc1ccc(O)cc1
Result: inactive

Q: What do we get for O=C(O)C(Cl)Cl ?
Result: inactive

###

Read-out: Pyruvate Dehydrogenase Kinase 4 (PDK4), PDK4 (gene 5166)
procedure.summary: LTEA_HepaRG_PDK4: Life Technologies and Expression Analysis (LTEA) Assay for Pyruvate Dehydrogenase Kinase 4 (PDK4) using HepaRG (AID 2283525)
assay.context: mRNA level, 48 h; actives raise or lower the signal
The source made the active and inactive calls. Rule for the calls: active = hit-call score of the fitted dose curve at least 0.9, where 1 is the maximum; inactive = score below 0.9.
Output constraint: value belongs to Yes for active, No for inactive

CCCCN(CCCC)SN(C)C(=O)Oc1cccc2c1OC(C)(C)C2
No
CCOC(=O)c1ccccc1C(=O)OCC
No
c1ccc(OP(Oc2ccccc2)Oc2ccccc2)cc1
No
c1ccc2c(c1)Nc1ccccc1S2
No
Cc1ccc(N)cc1N
Yes

Q: Query: recorded result category for CC(Cc1ccc(OCC(=O)O)cc1)NCC(O)c1csc(C(F)(F)F)n1 (centres undefined) in this test
Result: No

Q: Next compound: O=[N+]([O-])c1ccc(Cl)c(Cl)c1
Result: No

Q: Moving on to the next compound: CCNc1nc(Cl)nc(NC(C)(C)C)n1
Result: No

Q: Then this compound: CCN(CC)c1ccccc1
Result: No

###

Read-out: Bcl-2 (BAX) gene, BAX (gene 581)
procedure.summary: LTEA_HepaRG_BAX: Life Technologies and Expression Analysis (LTEA) Assay for Bcl-2 (BAX) gene using HepaRG (AID 2283470)
assay.context: mRNA level, 48 h; actives raise or lower the signal
Active and inactive are the calls of the source. Rule for the calls: active = hit-call score of the fitted dose curve at least 0.9, where 1 is the maximum; inactive = score below 0.9.
recorded.metric: outcome

Here's what some known entries look like.
c1cc2c3c(cccc3c1)CC2
inactive
Cc1ccc(O)cc1C
inactive
Nc1cc2c3c(c1)C(c1ccccc1)=N[C@@H](NC(=O)c1cccnc1)C(=O)N3CC2
inactive
CC(Cl)(Cl)C(=O)O
inactive
CCOP(=S)(OCC)SCSCC
inactive

Q: Sample CCCCN(CCCC)SN(C)C(=O)Oc1cccc2c1OC(C)(C)C2 — what was its outcome?
Result: inactive

Q: Follow-up item: c1ccc(OP(Oc2ccccc2)Oc2ccccc2)cc1
Result: inactive

Q: // same read-out, input: CCCCCCCc1ccc(O)cc1
Result: inactive

Q: Also need CCCCc1ccccc1 , thanks.
Result: inactive

Q: Another molecule to look at: CCOc1ccc(C(C)(C)COCc2cccc(Oc3ccccc3)c2)cc1
Result: inactive

Q: Also CCN(CC)c1ccccc1 ?
Result: inactive

Q: What do you have for O=C(O)C1C(C(=O)O)C2(Cl)C(Cl)=C(Cl)C1(Cl)C2(Cl)Cl (stereo unspecified) ?
Result: inactive

Q: What do we get for ClC(Cl)c1ccccc1 ?
Result: inactive

Q: Cool, now CC(C)(C)c1ccc(O)cc1
Result: inactive

Q: And for c1nc[nH]n1 ?
Result: inactive

Q: Now give it for [N-]=[N+]=[N-] too.
Result: inactive

###

Read-out: sulfotransferase 2A1 (SULT2A1), SULT2A1 (gene 6822)
procedure.summary: LTEA_HepaRG_SULT2A1: Life Technologies and Expression Analysis (LTEA) Assay for sulfotransferase 2A1 (SULT2A1) using HepaRG (AID 2283531)
assay.context: mRNA level, 48 h; actives raise or lower the signal
Activity calls are given as the source filed them. How the source made its calls: active means hit-call score of the fitted dose curve at least 0.9, where 1 is the maximum; inactive means score below 0.9.
recorded.metric: outcome

Would you please look over these solved cases?
CCCCN(CCCC)SN(C)C(=O)Oc1cccc2c1OC(C)(C)C2
inactive
Cc1ccc(O)cc1C
inactive
CC(C)(C)OOC(C)(C)C
inactive
O=[N+]([O-])c1ccc(Cl)c(Cl)c1
inactive
CCN(CC)c1ccccc1
inactive
Nc1ccc2ccccc2c1
inactive

Q: # input molecule: Cc1cccc(N)c1 ; wanted: its outcome
Result: inactive

Q: Another: [N-]=[N+]=[N-]
Result: inactive

Q: Another molecule to look at: CCOc1ccc(C(C)(C)COCc2cccc(Oc3ccccc3)c2)cc1
Result: inactive

Q: Would you kindly repeat that for CCCCc1ccccc1 ?
Result: inactive

Q: Request: CCOP(=S)(OCC)SCSCC
Result: inactive

###

procedure.summary: Tanguay_ZF_120hpf_YSE_legacy: (Legacy) Oregon State University Tanguay Lab 120 Hour Post-fertilization zebrafish Assay for Yolk Sac Edema (AID 2283634)
Inconclusive results are not listed. Active and inactive are the calls of the source. Rule for the calls: active = hit-call score of the fitted dose curve at least 0.9, where 1 is the maximum; inconclusive = response in the unintended direction; inactive = score below 0.9.
One label from this list, please: active, inactive

Below, 3 compounds whose answers are already recorded.
CCC1(c2ccccc2)C(=O)N=C(O)NC1=O (stereo not drawn)
inactive
CCOc1ccc(C(C)(C)COCc2cccc(Oc3ccccc3)c2)cc1
inactive
CC(C)(C)OOC(C)(C)C
inactive

Q: Per the assay record, what outcome was assigned to c1cc2c3c(cccc3c1)CC2 ?
Result: inactive

Q: Try the compound CN(C)C(=O)Cl
Result: inactive

###

subject.of.test: Sodium channel protein type 1 subunit alpha (Rattus norvegicus)
procedure.summary: NVS_IC_rNaCh_site2: NovaScreen (NVS) Ion Channel Assay for rat Sodium Channel, Site 2 (NaCh) (AID 2283322);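 further: hit means loss of radioligand binding signal relative to DMSO so AC50 marks displacement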
Results filed as inconclusive are left out. Active and inactive are the calls of the source. The calls were made as follows: active = hit-call score of the fitted dose curve at least 0.9, where 1 is the maximum; inconclusive = response in the unintended direction; inactive = score below 0.9.
// one of true (1) = active, false (0) = inactive, no free text

These recorded examples may help you get a feel for the data.
CSC(C)(C)C=NO
false (0)
Oc1ccc(I)cc1
true (1)
CCCCOCCOP(=O)(OCCOCCCC)OCCOCCCC
false (0)

Q: Called result for CC(C)(C)c1ccccc1OP(=O)(Oc1ccccc1)Oc1ccccc1
Result: false (0)

Q: Would you mind doing Cc1cc(C)c(C(=O)P(=O)(c2ccccc2)c2ccccc2)c(C)c1 as well?
Result: false (0)

Q: # iterate: CCC(C)(C)c1ccc(O)cc1
Result: true (1)

Q: Now this one: N#Cc1ccc(O)cc1
Result: true (1)
